Where do the numbers come from? From patent US9035052B2.

# Procedure Details: Apparent water solubility and dissolution of the solid state forms
# Test Settings: water
Property: solubility

> print(dat)
                                   compound     result
1  CN1CCN(CCCCN2C(=O)CN(/N=C/c3ccc(-c4ccc(Cl)cc4)o3)C2=O)CC1.Cl.Cl [anhydrate]  160 mg/mL
